system: IP-10 release in differentiated THP-1 cells; experiment: IP-10 cytokine release assay in THP-1 cell lines; assay type: cell-based, Human; settings: Homo sapiens, read-out: EC50 (μM)@ 30 μM of cGAMP; IP-10 release over cGAMP induced release, THP-1, 30 μM cGAMP
readout.name: EC50
# output: numeric value plus its unit

Quick check: EC50 of `COc1cc2ncnc(N3CC(CCNS(N)(=O)=O)C3)c2cc1OC` ?
0.624 µM

###

target: ENPP-1 (Ectonucleotide Pyrophosphatase/Phosphodiesterase 1) (Homo sapiens (Human)); assay: ENPP1 inhibition assay (AMP Glo, cGAMP substrate); format: biochemical; settings: cGAMP 20 μM substrate, ENPP1 1 nM
readout.name: IC50

Use the examples below as a reference point.
| compound.structure | IC50 |
| --- | --- |
| Cc1cc(Cl)n2nc(C(C)C)nc(N3CC4(CC(N(C)S(N)(=O)=O)C4)C3)c12 | > 3 µM |
| CN(C1CC2(C1)CN(c1ncnc3scc(-c4ccccc4)c13)C2)S(N)(=O)=O | > 3 µM |

Consider the additional compound presented here.
Quick check: IC50 of `Cc1cc(Cl)n2ncnc(N3CC(CCN(C4CCC4)S(N)(=O)=O)C3)c12` ?
> 3 µM

###

target: ENPP-1 (Ectonucleotide Pyrophosphatase/Phosphodiesterase 1) (Homo sapiens (Human), UniProt P22413); experiment: ENPP1 inhibition assay (AMP Glo, cGAMP substrate); type: biochemical; conditions: cGAMP 20 μM substrate, ENPP1 1 nM
Sequence (P22413 whole entry): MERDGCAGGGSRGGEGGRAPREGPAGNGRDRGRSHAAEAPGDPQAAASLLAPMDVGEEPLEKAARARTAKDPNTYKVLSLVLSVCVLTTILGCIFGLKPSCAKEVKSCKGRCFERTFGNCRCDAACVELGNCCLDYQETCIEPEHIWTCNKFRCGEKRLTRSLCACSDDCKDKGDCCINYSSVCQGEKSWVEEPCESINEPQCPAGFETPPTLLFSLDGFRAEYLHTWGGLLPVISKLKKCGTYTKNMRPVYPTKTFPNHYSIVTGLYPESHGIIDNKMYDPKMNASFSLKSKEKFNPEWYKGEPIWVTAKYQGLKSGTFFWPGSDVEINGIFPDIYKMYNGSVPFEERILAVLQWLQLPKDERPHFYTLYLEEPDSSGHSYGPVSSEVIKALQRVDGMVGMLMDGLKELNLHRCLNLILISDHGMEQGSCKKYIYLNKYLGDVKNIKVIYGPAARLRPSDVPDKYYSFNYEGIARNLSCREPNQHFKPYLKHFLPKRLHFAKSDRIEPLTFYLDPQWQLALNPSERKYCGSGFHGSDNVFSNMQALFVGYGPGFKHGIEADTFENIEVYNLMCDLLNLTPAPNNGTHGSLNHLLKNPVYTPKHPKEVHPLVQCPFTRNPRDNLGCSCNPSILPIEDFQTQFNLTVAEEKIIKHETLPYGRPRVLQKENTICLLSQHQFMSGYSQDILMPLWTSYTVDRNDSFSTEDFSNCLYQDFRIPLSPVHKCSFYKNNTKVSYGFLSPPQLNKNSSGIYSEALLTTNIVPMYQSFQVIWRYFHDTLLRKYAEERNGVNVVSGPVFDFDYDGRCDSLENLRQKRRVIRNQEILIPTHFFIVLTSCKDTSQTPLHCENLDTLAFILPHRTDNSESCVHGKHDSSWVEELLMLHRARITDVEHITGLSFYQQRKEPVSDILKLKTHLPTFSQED
readout.name: IC50

Use the examples below as a reference point.
| compound.structure | recorded.measurement |
| --- | --- |
| Cc1ccn2ncnc(N3CC(CCB(O)O)C3)c12 | > 3 µM |
| Cn1cnc2c(F)c3ncnc(N4CC(CCNS(N)(=O)=O)C4)c3cc21 | > 3 µM |
| COc1ccc2c(N3CC(CCNS(N)(=O)=O)C3)nc(-c3cccnc3)nc2c1 | > 3 µM |

Quick check: IC50 of `COc1cc2ncnc(N3CC4(CC(NS(C)(=O)=O)C4)C3)c2cc1OC` ?
> 1.98 µM

Quick check: IC50 of `COc1cc2[nH]c(=O)nc(N3CC(CCNS(N)(=O)=O)C3)c2cc1OC` ?
> 5 µM

Quick check: IC50 of `CN(C1CC2(C1)CN(c1nc(N)nc3[nH]cnc13)C2)S(N)(=O)=O` ?
> 3 µM

###

# Lookup of reported IC50 keyed by entry
molecular target: ENPP-1 (Ectonucleotide Pyrophosphatase/Phosphodiesterase 1) (Homo sapiens (Human)); assay: ENPP1 inhibition assay (AMP Glo, cGAMP substrate); assay type: biochemical; conditions: cGAMP 20 μM substrate, ENPP1 1 nM
The figure you give is taken to be in µM; do not add the unit.

Quick check: IC50 of `CCCN(CCC1CN(c2ncnn3c(Cl)cc(C)c23)C1)S(N)(=O)=O` ?
1.88

Quick check: IC50 of `COc1cc2ncnc(N3CC(CCP(=O)(O)O)C3)c2cc1OC` ?
0.892

Quick check: IC50 of `Cc1cc(Cl)n2ncnc(N3CC4(CC(N(Cc5ccc(C(F)(F)F)cc5)S(N)(=O)=O)C4)C3)c12` ?
0.189

Quick check: IC50 of `COc1ccc2c(N3CC4(CC(NS(N)(=O)=O)C4)C3)ncnc2c1` ?
0.006

Quick check: IC50 of `COc1cccc2c(N3CC(CCNS(N)(=O)=O)C3)c(C#N)cnc12` ?
0.032

Quick check: IC50 of `COc1cc2nc(-c3ccc(F)cc3)nc(N3CC(CCNS(N)(=O)=O)C3)c2cc1OC` ?
0.248
